The reader will find reported selectivity ratio values listed item by item below.
# Experimental details: Selectivity index, ratio of CC50 for human HepG2 cells in presence of 1% FBS to MIC for Escherichia coli N11281
# Type: toxicity
# Condition description: read-out: Selectivity Index
Metric: selectivity ratio

{"Structure smiles": "Cc1cccc2c1-c1ccccc1[I+]2", "Result": 0.14}
{"Structure smiles": "N#Cc1ccc2c(c1)-c1ccccc1[I+]2", "Result": 0.32}
{"Structure smiles": "Clc1ccc2c(c1)-c1ccccc1[I+]2", "Result": 0.93}
{"Structure smiles": "Cc1ccc2c(c1)-c1ccccc1[I+]2", "Result": 0.52}
{"Structure smiles": "c1ccc2c(c1)[I+]c1ccccc1-2", "Result": 0.78}
{"Structure smiles": "N#Cc1ccc2c(c1)[I+]c1ccccc1-2", "Result": 0.05}
{"Structure smiles": "COc1ccc2c(c1)-c1ccccc1[I+]2", "Result": "> 0.29"}
{"Structure smiles": "Fc1cccc2c1-c1ccccc1[I+]2", "Result": 1}
{"Structure smiles": "Fc1ccc2c(c1)-c1ccccc1[I+]2", "Result": 0.67}

---

Entries annotated with measured selectivity ratio
# Experimental details: Selectivity index, ratio of CC50 for human HepG2 cells in presence of 1% FBS to MIC for Escherichia coli N2381
# Format: toxicity
# Condition description: read-out: Selectivity Index

{"Structure smiles": "Cc1ccc2c(c1)[I+]c1ccccc1-2.O=S(=O)([O-])C(F)(F)F", "selectivity ratio": 0.05}
{"Structure smiles": "N#Cc1ccc2c(c1)-c1ccccc1[I+]2", "selectivity ratio": 0.32}
{"Structure smiles": "Cc1cccc2c1-c1ccccc1[I+]2", "selectivity ratio": 0.14}
{"Structure smiles": "Cc1ccc2c(c1)-c1ccccc1[I+]2", "selectivity ratio": 0.52}
{"Structure smiles": "Clc1ccc2c(c1)-c1ccccc1[I+]2", "selectivity ratio": 0.93}
{"Structure smiles": "Clc1cccc2c1-c1ccccc1[I+]2", "selectivity ratio": 1.2}
{"Structure smiles": "c1ccc2c(c1)[I+]c1ccccc1-2", "selectivity ratio": 0.78}

---

Below, each of the compounds is paired with its reported selectivity ratio value.
# Experimental details: Selectivity index, ratio of CC50 for human HepG2 cells in presence of 1% FBS to MIC for Pseudomonas aeruginosa isolate 18878B klon 1
# Format: toxicity
# Condition description: read-out: Selectivity Index
Metric: selectivity ratio

{"Structure smiles": "COc1cccc2c1-c1ccccc1[I+]2", "Metric": "selectivity ratio", "Inequality sign": "=", "Measured number": 0.55}
{"Structure smiles": "N#Cc1ccc2c(c1)[I+]c1ccccc1-2", "Metric": "selectivity ratio", "Inequality sign": "=", "Measured number": 0.75}
{"Structure smiles": "Cc1ccc2c(c1)-c1ccccc1[I+]2", "Metric": "selectivity ratio", "Inequality sign": "=", "Measured number": 4.2}
{"Structure smiles": "Clc1ccc2c(c1)-c1ccccc1[I+]2", "Metric": "selectivity ratio", "Inequality sign": "=", "Measured number": 7.5}
{"Structure smiles": "COc1ccc2c(c1)-c1ccccc1[I+]2", "Metric": "selectivity ratio", "Inequality sign": "=", "Measured number": 0.58}
{"Structure smiles": "Fc1cccc2c1-c1ccccc1[I+]2", "Metric": "selectivity ratio", "Inequality sign": "<", "Measured number": 16}
{"Structure smiles": "Cc1ccc2c(c1)[I+]c1ccccc1-2.O=S(=O)([O-])C(F)(F)F", "Metric": "selectivity ratio", "Inequality sign": "=", "Measured number": 0.81}
{"Structure smiles": "c1ccc2c(c1)[I+]c1ccccc1-2", "Metric": "selectivity ratio", "Inequality sign": "=", "Measured number": 6.3}
{"Structure smiles": "COc1ccc2c(c1)[I+]c1ccccc1-2", "Metric": "selectivity ratio", "Inequality sign": "=", "Measured number": 0.39}
{"Structure smiles": "c1ccc2c(c1)[I+]c1c-2ccc2ccccc12", "Metric": "selectivity ratio", "Inequality sign": "=", "Measured number": 0.34}
{"Structure smiles": "Fc1ccc2c(c1)-c1ccccc1[I+]2", "Metric": "selectivity ratio", "Inequality sign": "=", "Measured number": 5.3}
{"Structure smiles": "Fc1ccc2c(c1)[I+]c1ccccc1-2", "Metric": "selectivity ratio", "Inequality sign": "=", "Measured number": 5.3}
{"Structure smiles": "N#Cc1ccc2c(c1)-c1ccccc1[I+]2", "Metric": "selectivity ratio", "Inequality sign": "=", "Measured number": 2.5}
{"Structure smiles": "Clc1cccc2c1-c1ccccc1[I+]2", "Metric": "selectivity ratio", "Inequality sign": "<", "Measured number": 2.4}
{"Structure smiles": "Clc1ccc2c(c1)[I+]c1ccccc1-2", "Metric": "selectivity ratio", "Inequality sign": "=", "Measured number": 2}
{"Structure smiles": "Cc1cccc2c1-c1ccccc1[I+]2", "Metric": "selectivity ratio", "Inequality sign": "=", "Measured number": 2.3}
